Known pIC50 of a selection of compounds
target: PRS enzyme (Homo sapiens); construct: the portion corresponding to PRS in cDNA of EPRS was subcloned; made in house; test: PRS enzyme activity inhibition experiment; type: biochemical; conditions: purified PRS protein subcloned from EPRS cDNA; [3H]proline, 37° C., 5 to 10 minutes, liquid scintillation counter; read-out: PRS IC50
Sequence (P07814 1007-1512 limits assumed): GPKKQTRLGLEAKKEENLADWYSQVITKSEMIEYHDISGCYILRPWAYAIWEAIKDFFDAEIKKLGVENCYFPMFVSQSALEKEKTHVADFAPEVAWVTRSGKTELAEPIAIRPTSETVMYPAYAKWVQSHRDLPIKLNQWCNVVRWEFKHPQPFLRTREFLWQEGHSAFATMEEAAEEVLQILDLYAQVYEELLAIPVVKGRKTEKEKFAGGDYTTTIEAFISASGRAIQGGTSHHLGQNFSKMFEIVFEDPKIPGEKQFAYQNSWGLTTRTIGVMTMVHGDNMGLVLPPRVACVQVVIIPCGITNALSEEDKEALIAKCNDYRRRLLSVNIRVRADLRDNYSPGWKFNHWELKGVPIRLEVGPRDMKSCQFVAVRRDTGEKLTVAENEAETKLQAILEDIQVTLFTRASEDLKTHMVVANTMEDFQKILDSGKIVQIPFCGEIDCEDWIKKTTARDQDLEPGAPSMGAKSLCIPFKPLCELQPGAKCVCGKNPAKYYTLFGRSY
pIC50: −log10 of the molar value.

Example cases with answers are listed next.
- COMPOUND: "O=C(C[C@H]1NCCC[C@@H]1O)Cn1c(CO)nc2ccc(-c3cccc(C(F)(F)F)c3)cc21 [Example 61]"
  pIC50: "6.30 to 7.00"
- COMPOUND: "O=C(C[C@H]1NCCC[C@@H]1O)Cn1cnc2cc(-c3cccc(Cl)c3)cnc21 [Example 14]"
  pIC50: "6.30 to 7.00"
- COMPOUND: "O=C(C[C@H]1NCCC[C@@H]1O)Cn1cnc2ccc(-c3cscn3)cc21 [Example 39]"
  pIC50: "6.30 to 7.00"
- COMPOUND: "O=C(C[C@H]1NCCC[C@@H]1O)Cn1cnc2cc(-c3ccccc3)ccc21 [Example 8]"
  pIC50: "< 6.30"
- COMPOUND: "Cc1cc(Cl)cc(-c2ccc3ncn(CC(=O)C[C@H]4NCCC[C@@H]4O)c3c2)c1 [Example 34]"
  pIC50: "> 7.00"

--- query ---
Input: Note down pIC50 recorded for Cc1c(-c2cccc(F)c2)ccc2c1ncn2CC(=O)C[C@H]1NCCC[C@@H]1O [Example 16]
Output: 6.30 to 7.00
